Target: T1, PSMA Fab
T1 construct: Biotinylated PSMA Fab captured on neutravidin coated plates in the phage ELISA; also called Anti-PSMA Fab; 006 PSMA Fab
Assay: clonal phage ELISA on biotinylated PSMA Fab captured on neutravidin plates, anti-M13 HRP detection;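 further: crude clonal phage supernatants tested, before phage were added, wells were pretreated with PSMA antigen in blocking buffer or with blocking buffer only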
Where no end group is shown, it is not given here.
property: Phage binding ELISA signal, Anti-PSMA Fab

- binder: "GPKWCTPTWMCEFS [Phage-2776]"
  numeric-readout: 0.638
- binder: "DVKWCTPPWMCLSD [Phage-2785]"
  numeric-readout: 0.613
- binder: "EENWCIPVWMCERL [Phage-2786]"
  numeric-readout: 0.607
- binder: "GWNWCVPQWMCTTS [Phage-2781]"
  numeric-readout: 0.623
- binder: "GSNWCKPAWMCSVA [Phage-2777]"
  numeric-readout: 0.634
- binder: "VHKMCTPPWMCVTQ [Phage-2783]"
  numeric-readout: 0.621
- binder: "QDKWCTPTWMCEGL [Phage-2778]"
  numeric-readout: 0.631
- binder: "VPKWCTPSWMCASN (cysteine pairing not given here; also: fused to pIII, displayed on bacteriophage) [Phage-2773]"
  numeric-readout: 0.643
- binder: "DMKLCRPAWMCMHN [Phage-2784]"
  numeric-readout: 0.621
- binder: "QDKMCRPDWMCMNQ [Phage-2782]"
  numeric-readout: 0.621
- binder: "VLNWCTPPWMCSGI [Phage-2780]"
  numeric-readout: 0.624
- binder: "DLKWCVPTWMCNWS [Phage-2775]"
  numeric-readout: 0.639
- binder: "VQAWCVPQWMCNQF [Phage-2772]"
  numeric-readout: 0.646
- binder: "QMHWCMPPWMCEGI (cysteine pairing not given here; also: fused to pIII, displayed on bacteriophage) [Phage-2771]"
  numeric-readout: 0.65
- binder: "DQNWCIPHWMCVGI [Phage-2779]"
  numeric-readout: 0.625
- binder: "SMKMCTPPWMCEFA [Phage-2774]"
  numeric-readout: 0.641
